Catalogue of compounds with associated IC50
TEST_TARGET: ACAT2 (Mus musculus, UniProt O88908)
Construct: The resulting sediment was collected as a microsome fraction; from tissue; host or cells: mouse liver (hepatic microsome membrane fraction)
Sequence (O88908 whole entry): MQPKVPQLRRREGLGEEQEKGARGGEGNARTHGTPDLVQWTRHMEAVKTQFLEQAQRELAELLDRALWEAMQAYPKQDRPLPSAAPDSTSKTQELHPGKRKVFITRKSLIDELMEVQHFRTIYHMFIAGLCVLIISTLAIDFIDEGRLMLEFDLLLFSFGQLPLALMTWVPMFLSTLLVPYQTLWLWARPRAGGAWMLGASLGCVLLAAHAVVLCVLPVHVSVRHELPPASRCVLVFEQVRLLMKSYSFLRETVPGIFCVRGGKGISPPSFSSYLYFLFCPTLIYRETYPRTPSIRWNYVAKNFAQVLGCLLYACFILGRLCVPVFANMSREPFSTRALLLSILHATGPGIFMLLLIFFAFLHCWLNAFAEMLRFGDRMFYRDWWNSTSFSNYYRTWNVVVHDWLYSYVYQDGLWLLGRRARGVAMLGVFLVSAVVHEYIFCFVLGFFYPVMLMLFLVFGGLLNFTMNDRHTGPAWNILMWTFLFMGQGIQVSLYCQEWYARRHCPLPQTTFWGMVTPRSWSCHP
ASSAY_TEXT: Measurement of ACAT2-inhibiting activity (murine hepatic microsome, [14C]cholesteryl oleate formation)
Assay type: biochemical
CONDITION_SUMMARY: read-out: Inhibitory activity (concentration required for 50% inhibition of ACAT 2 = IC50); murine hepatic microsome membrane fraction, 5 min at 37° C.

COMPOUND	TEST_TARGET	IC50
CC(C)C(=O)OCC1(C)C2C[C@H](OC(=O)c3ccc(C#N)cc3)[C@@]3(C)Oc4cc(-c5cccnc5)oc(=O)c4[C@H](O)C3[C@@]2(C)CC[C@@H]1OC(=O)C(C)C (some centres unmarked) [PRD056, reference compound]	ACAT2 (Mus musculus, UniProt O88908)	> 10 nM

Now let's try a different one.
Exam item: Query for ACAT2 (Mus musculus, UniProt O88908): what IC50 does the record show for COc1cccc(C(=O)O[C@H]2CC3C(C)(COC(C)=O)[C@@H](OC(C)=O)CC[C@]3(C)C3[C@@H](O)c4c(cc(-c5cccnc5)oc4=O)O[C@@]32C)c1 (some centres unmarked) [PRD043, reference compound] ?
Marked response: > 10 nM

###

ASSAY_TEXT: Stability against metabolizing enzymes in the liver (hepatic microsome)
CONDITION_SUMMARY: time until remaining amount reached 50%; female SD rat hepatic microsome, 6 μg/mL, 37° C., pH 7.4
Each item that follows carries a reported Half-life.

COMPOUND	Half-life
Cc1ccc([C@@H]2OCC3(C)C4C[C@H](OC(=O)c5ccc(F)cc5)[C@@]5(C)Oc6cc(-c7cccnc7)oc(=O)c6[C@H](O)C5[C@@]4(C)CC[C@@H]3O2)c(C)c1 (some centres unmarked)	>9 h
COc1cccc(C(=O)O[C@H]2CC3C(C)(COC(C)=O)[C@@H](OC(C)=O)CC[C@]3(C)C3[C@@H](O)c4c(cc(-c5cccnc5)oc4=O)O[C@@]32C)c1 (some centres unmarked) [PRD043, reference compound]	>9 h
CC(=O)O[C@H]1CC[C@@]2(C)C(C[C@H](OC(=O)c3ccc(C#N)cc3)[C@@]3(C)Oc4cc(-c5cccnc5)oc(=O)c4[C@H](O)C23)C1(C)COC(=O)c1ccccc1 (some centres unmarked)	>9 h
CC(=O)OCC1(C)C2C[C@H](OC(=O)c3ccccc3F)[C@@]3(C)Oc4cc(-c5cccnc5)oc(=O)c4[C@H](O)C3[C@@]2(C)CC[C@@H]1OC(C)=O (some centres unmarked) [PRD026, reference compound]	<1 h

Continue with the compound presented below.
Exam item: Would you mind telling me what Half-life value was observed for CC12CO[C@@H](c3cccc4ccccc34)O[C@H]1CC[C@@]1(C)C2C[C@H](OC(=O)c2ccc(C#N)cc2)[C@@]2(C)Oc3cc(-c4cccnc4)oc(=O)c3[C@H](O)C12 (some centres unmarked) ?
Marked response: >9 h

###

TEST_TARGET: ACAT2 (Mus musculus, UniProt O88908)
Construct: The resulting sediment was collected as a microsome fraction; from tissue; host or cells: mouse liver (hepatic microsome membrane fraction)
ASSAY_TEXT: Measurement of ACAT2-inhibiting activity (murine hepatic microsome, [14C]cholesteryl oleate formation)
Format: biochemical
CONDITION_SUMMARY: murine hepatic microsome membrane fraction, 5 min at 37° C.; read-out: Inhibitory activity (concentration required for 50% inhibition of ACAT 2 = IC50)
RECORDED_METRIC: IC50

Sample answers from the record:
COMPOUND	TEST_TARGET	IC50
Cc1cccc(C)c1[C@@H]1OCC2(C)C3C[C@H](OC(=O)c4ccc(C#N)cc4)[C@@]4(C)Oc5cc(-c6cccnc6)oc(=O)c5[C@H](O)C4[C@@]3(C)CC[C@@H]2O1 (stereo partly drawn) [PRD181]	ACAT2 (Mus musculus, UniProt O88908)	0.5 to 1 nM
Cc1ccccc1[C@@H]1OCC2(C)C3C[C@H](OC(=O)c4ccc(F)cc4)[C@@]4(C)Oc5cc(-c6cccnc6)oc(=O)c5[C@H](O)C4[C@@]3(C)CC[C@@H]2O1 (stereo partly drawn) [PRD155]	ACAT2 (Mus musculus, UniProt O88908)	0.5 to 1 nM
CN(C)c1ccc([C@@H]2OCC3(C)C4C[C@H](OC(=O)c5ccc(C#N)cc5)[C@@]5(C)Oc6cc(-c7cccnc7)oc(=O)c6[C@H](O)C5[C@@]4(C)CC[C@@H]3O2)cc1 (stereo partly drawn) [PRD123]	ACAT2 (Mus musculus, UniProt O88908)	< 0.5 nM
COc1ccccc1[C@@H]1OCC2(C)C3C[C@H](OC(=O)c4ccc(C#N)cc4)[C@@]4(C)Oc5cc(-c6cccnc6)oc(=O)c5[C@H](O)C4[C@@]3(C)CC[C@@H]2O1 (stereo partly drawn) [PRD161]	ACAT2 (Mus musculus, UniProt O88908)	0.5 to 1 nM
CC12CO[C@@H](c3ccccc3F)O[C@H]1CC[C@@]1(C)C2C[C@H](OC(=O)c2ccc(F)cc2)[C@@]2(C)Oc3cc(-c4cccnc4)oc(=O)c3[C@H](O)C12 (stereo partly drawn) [PRD164]	ACAT2 (Mus musculus, UniProt O88908)	0.5 to 1 nM
CCCCCC(=O)OCC1(C)C2C[C@H](OC(=O)c3ccc(C#N)cc3)[C@@]3(C)Oc4cc(-c5cccnc5)oc(=O)c4[C@H](O)C3[C@@]2(C)CC[C@@H]1OC(=O)CCCCC (stereo partly drawn) [PRD167]	ACAT2 (Mus musculus, UniProt O88908)	0.5 to 1 nM
COc1ccccc1[C@@H]1OCC2(C)C3C[C@H](OC(=O)c4ccc(F)cc4)[C@@]4(C)Oc5cc(-c6cccnc6)oc(=O)c5[C@H](O)C4[C@@]3(C)CC[C@@H]2O1 (stereo partly drawn) [PRD162]	ACAT2 (Mus musculus, UniProt O88908)	1 to 10 nM
Cc1ccc([C@@H]2OCC3(C)C4C[C@H](OC(=O)c5ccc(C#N)cc5)[C@@]5(C)Oc6cc(-c7cccnc7)oc(=O)c6[C@H](O)C5[C@@]4(C)CC[C@@H]3O2)cc1 (stereo partly drawn) [PRD126]	ACAT2 (Mus musculus, UniProt O88908)	0.5 to 1 nM

Exam item: Need IC50 of CC(C)C(=O)OCC1(C)C2C[C@H](OC(=O)C3CCCCC3)[C@@]3(C)Oc4cc(-c5cccnc5)oc(=O)c4[C@H](O)C3[C@@]2(C)CC[C@@H]1OC(=O)C(C)C (stereo partly drawn) [PRD074] , thanks.
Marked response: 0.5 to 1 nM

Exam item: Look up IC50 for this compound: Cc1ccc([C@@H]2OCC3(C)C4C[C@H](OC(=O)c5ccc(F)cc5)[C@@]5(C)Oc6cc(-c7cccnc7)oc(=O)c6[C@H](O)C5[C@@]4(C)CC[C@@H]3O2)c(C)c1 (stereo partly drawn) [PRD160]
Marked response: 0.5 to 1 nM

Exam item: Name the recorded IC50 for CC(=O)O[C@H]1CC2C(C)(COC(=O)C(C)C)[C@@H](OC(=O)C(C)C)CC[C@]2(C)C2[C@@H](O)c3c(cc(-c4cccnc4)oc3=O)O[C@@]21C (stereo partly drawn) [PRD187] .
Marked response: 0.5 to 1 nM

Exam item: So what's the measured IC50 for this one? COC(=O)C1(C)C2C[C@H](OC(=O)c3ccc(C#N)cc3)[C@@]3(C)Oc4cc(-c5cccnc5)oc(=O)c4[C@H](O)C3[C@@]2(C)CC[C@@H]1OC(C)=O (stereo partly drawn) [PRD070]
Marked response: 0.5 to 1 nM

###

Reported half-life at 6 μg/mL values follow for various molecules
ASSAY_TEXT: Stability against metabolizing enzymes in the liver (hepatic microsome)
CONDITION_SUMMARY: female, Sprague-Dawley (SD), rat, liver microsomes, pH 7.4, Half-life, time until remaining amount reached 50%, 37° C.

Exam item: Entry CC(=O)OCC1(C)C2C[C@H](OC(=O)c3cccc(Br)c3)[C@@]3(C)Oc4cc(-c5cccnc5)oc(=O)c4[C@H](O)C3[C@@]2(C)CC[C@@H]1OC(C)=O (stereo partly shown) [PRD025, reference compound] has what half-life at 6 μg/mL?
Marked response: 1 h

Exam item: Give the measured half-life at 6 μg/mL of CC(=O)O[C@H]1CC[C@@]2(C)C(C[C@H](OC(C)=O)[C@@]3(C)Oc4cc(-c5cccnc5)oc(=O)c4[C@H](O)C23)C1(C)COC(=O)c1ccccc1 (stereo partly shown) .
Marked response: ≥ 9 h

Exam item: Reported half-life at 6 μg/mL, molecule COC(=O)C1(C)C2C[C@H](OC(=O)c3ccc(C#N)cc3)[C@@]3(C)Oc4cc(-c5cccnc5)oc(=O)c4[C@H](O)C3[C@@]2(C)CC[C@@H]1OC(C)=O (stereo partly shown) : ____
Marked response: > 9 h

Exam item: Give its half-life at 6 μg/mL value. Item: COc1ccccc1[C@@H]1OCC2(C)C3C[C@H](OC(=O)c4ccc(C#N)cc4)[C@@]4(C)Oc5cc(-c6cccnc6)oc(=O)c5[C@H](O)C4[C@@]3(C)CC[C@@H]2O1 (stereo partly shown)
Marked response: ≥ 9 h

Exam item: Which half-life at 6 μg/mL value is on record for CC(=O)OCC1(C)C2C[C@H](OC(=O)c3ccc(C#N)cc3)[C@@]3(C)Oc4cc(-c5cccnc5)oc(=O)c4[C@H](O)C3[C@@]2(C)CC[C@@H]1OC(=O)C(C)C (stereo partly shown) ?
Marked response: ≥ 9 h

Exam item: Looking for the measured half-life at 6 μg/mL of CC(=O)O[C@H]1CC[C@@]2(C)C(C[C@H](OC(=O)c3ccc(C#N)cc3)[C@@]3(C)Oc4cc(-c5cccnc5)oc(=O)c4[C@H](O)C23)C1(C)C(=O)O (stereo partly shown) , can you help?
Marked response: ≥ 9 h

Exam item: What half-life at 6 μg/mL value was documented for this molecule, CC(=O)O[C@H]1CC2C3(C)CO[C@@H](c4ccccc4)O[C@H]3CC[C@]2(C)C2[C@@H](O)c3c(cc(-c4cccnc4)oc3=O)O[C@@]21C (stereo partly shown) ?
Marked response: ≥ 9 h

Exam item: Which half-life at 6 μg/mL value is on record for CCc1ccc(C(=O)O[C@H]2CC3C(C)(COC(C)=O)[C@@H](OC(C)=O)CC[C@]3(C)C3[C@@H](O)c4c(cc(-c5cccnc5)oc4=O)O[C@@]32C)cc1 (stereo partly shown) [PRD024, reference compound] ?
Marked response: 1 h

Exam item: What value of half-life at 6 μg/mL has been reported for the following molecule? CC12CO[C@@H](c3ccccc3F)O[C@H]1CC[C@@]1(C)C2C[C@H](OC(=O)c2ccc(F)cc2)[C@@]2(C)Oc3cc(-c4cccnc4)oc(=O)c3[C@H](O)C12 (stereo partly shown)
Marked response: ≥ 9 h

Exam item: So what does the record say about half-life at 6 μg/mL for CC(=O)OCC1(C)C2C[C@H](OC(=O)c3ccccc3C)[C@@]3(C)Oc4cc(-c5cccnc5)oc(=O)c4[C@H](O)C3[C@@]2(C)CC[C@@H]1OC(C)=O (stereo partly shown) [PRD007, reference compound] ?
Marked response: 1 h
